Item-by-item account of melting point

> print(dat)
                                   compound  value.observed
1  Cc1ccc(S(=O)(=O)Nc2cc(C(=O)O)c(=O)n3ccccc23)cc1        > 300 °C
2  COc1cc(C(=O)Nc2cc(C(=O)O)c(=O)n3ccccc23)cc(OC)c1OC   280 to 282 °C
3  O=C(O)c1cc(NS(=O)(=O)c2ccc(Cl)cc2)c2ccccn2c1=O        > 300 °C

Kindly note the recorded melting point for O=C(O)c1cc(NS(=O)(=O)c2ccccc2)c2ccccn2c1=O , which is 245 to 247 °C

Kindly note the recorded melting point for O=C(O)c1cc(-c2nc3ccccc3[nH]2)c2ccccn2c1=O [14a] , which is > 300 °C

Kindly note the recorded melting point for O=C(O)c1cc(-c2nc3ccccc3s2)c2ccccn2c1=O , which is > 300 °C

Kindly note the recorded melting point for O=C(O)c1cc(NS(=O)(=O)c2ccc([N+](=O)[O-])cc2)c2ccccn2c1=O , which is > 300 °C

Kindly note the recorded melting point for COc1ccc2[nH]c(-c3cc(C(=O)O)c(=O)n4ccccc34)nc2c1 [14c] , which is > 300 °C

Kindly note the recorded melting point for COc1ccc(S(=O)(=O)Nc2cc(C(=O)O)c(=O)n3ccccc23)cc1 , which is > 300 °C

Kindly note the recorded melting point for O=C(O)c1cc(-c2nc3cc(Cl)ccc3[nH]2)c2ccccn2c1=O [14b] , which is > 300 °C
